B1: TCAP (parent)
chain: YQRVLPLPIFTPAKMGATKEERED

# Variants of: B1
# protocol text: protein stability index of a GFP-peptide fusion (GPS, HEK-293T) (PSI 1-6); higher = more stable;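 note: lentivirally expressed fusions sorted by FACS into six bins by GFP to DsRed ratio, PSI derived from sequencing read proportions per bin multiplied by bin number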
# condition details: c terminus: a fixed tail appended
test readout: protein stability index
Number, no unit, nothing else.

Q. Which protein stability index reading was recorded for the variant P6Y ?
A. 2.35

Q. Now try L7Q .
A. 2.56

Q. Now try E21S .
A. 1.91

Q. Now try L5K .
A. 2.13

Q. Now try V4C .
A. 2

Q. Now try F10D .
A. 4.32

Q. Now try I9H .
A. 2.83

Q. Now try R22F .
A. 1.85

Q. Now try L5G .
A. 2.89

Q. Now try K14W .
A. 1.59

Q. Now try L7S .
A. 2.31

Q. Now try A13E .
A. 2.9

Q. Now try L5Y .
A. 2.37

Q. Now try M15D .
A. 2.23

Q. Now try L7E .
A. 2.61

Q. Now try A17M .
A. 2.38

Q. Now try P12H .
A. 3.12

Q. Now try P8M .
A. 2.36

Q. Now try Q2W .
A. 2.59

Q. Now try M15Y .
A. 2.21

Q. Now try Q2G .
A. 1.41

Q. Now try P12Y .
A. 2.74

Q. Now try Q2R .
A. 3.9

Q. Now try V4P .
A. 2.67

Q. Now try E21F .
A. 1.95

Q. Now try K19F .
A. 1.93

Q. Now try L5W .
A. 2.81

Q. Now try P8K .
A. 2.18

Q. Now try V4M .
A. 1.53

Q. Now try P12G .
A. 3.11

Q. Now try L7M .
A. 2.43

Q. Now try V4Q .
A. 1.9

Q. Now try A13V .
A. 2.2

Q. Now try G16C .
A. 2.06

Q. Now try G16W .
A. 1.8

Q. Now try Y1H .
A. 4.68

Q. Now try E21L .
A. 2.06

Q. Now try L7H .
A. 4.72

Q. Now try I9V .
A. 2.88

Q. Now try P6K .
A. 1.89

Q. Now try L5V .
A. 1.96

Q. Now try F10I .
A. 3.72

Q. Now try M15H .
A. 2.57

Q. Now try F10G .
A. 4.44

Q. Now try F10N .
A. 4.05

Q. Now try D24H .
A. 1.81
